Cited source for all entries: patent US20180057505A1

Molecular target: PAR2 (HT-29 cells) (Homo sapiens)
Construct: host or cells: HT-29
Sequence (P55085 26-397): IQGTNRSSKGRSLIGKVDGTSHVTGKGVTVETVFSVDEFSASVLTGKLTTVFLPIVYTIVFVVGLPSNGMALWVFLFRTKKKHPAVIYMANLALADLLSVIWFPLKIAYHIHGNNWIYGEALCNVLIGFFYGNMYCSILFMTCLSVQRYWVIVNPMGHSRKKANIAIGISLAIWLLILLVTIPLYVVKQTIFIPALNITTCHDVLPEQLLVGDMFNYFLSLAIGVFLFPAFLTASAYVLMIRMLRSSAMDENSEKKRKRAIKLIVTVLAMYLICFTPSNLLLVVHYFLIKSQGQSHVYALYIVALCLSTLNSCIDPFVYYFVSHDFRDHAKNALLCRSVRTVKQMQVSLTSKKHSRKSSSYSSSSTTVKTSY
Experiment: Ca FLIPR TETRA assay, ANTAGONIST mode, activator 8 μM SLIGKV
Format: cell-based
Details: HT-29 cells, activator 8 μM SLIGKV; maximal antagonist concentration per Method (A: 0.1, 1 or 2 μM; B: 50 μM)
reportedProperty: IC50

[[record]]
compound = "CC(C)c1cc(-c2ccc(F)cc2)nc2cc(C(=O)N3CCN(C(=O)C4(O)CCOCC4)C[C@@H]3C)oc12 [Example I-105]"
valuereported = "8700 nM"

[[record]]
compound = "CC1(c2cc(-c3ccc(F)cc3)nc3cc(C(=O)N4CCN(C(=O)C5(C(F)(F)F)CC5)CC4(C)C)oc23)CC1 [Example I-55]"
valuereported = "2.8 nM"

[[record]]
compound = "[2H]C([2H])([2H])N1CCN(C(=O)c2cc3nc(-c4ccc(Cl)c(F)c4)cc(C(C)(C)C)c3o2)C(C)(C)C1=O [Example I-237]"
valuereported = "1.8 nM"


I would be grateful if you could provide IC50 for each of the following entries.
1. CC(C)(C)c1cc(C2CCC(F)(F)CC2)nc2cc(C(=O)N3CCN(C(=O)[C@H]4CC[C@@H](C(=O)O)CC4)CC3(C)C)oc12 [Example I-229]
2. CC1(c2cc(-c3ccc(F)cc3)nc3cc(C(=O)N4CCN(C(=O)C5C(C)(C)C5(C)C)CC4(C)C)oc23)CC1 [Example I-50]
3. C=C(C)c1cc(-c2ccc(F)cc2)nc2cc(C(=O)N3CCN(C(=O)[C@H]4C[C@](O)(C(F)(F)F)C4)CC3(C)C)oc12 [Example I-143]
4. Cc1cc(-c2cc(C(C)(C)C)c3oc(C(=O)N4CCN(C(=O)c5ccn[nH]5)CC4(C)C)cc3n2)ccc1F [Example I-167]
5. CC(C)C(=O)N1CCN(C(=O)c2cc3nc(-c4ccc(F)cc4)cc(C4(C)CC4)c3o2)C(C)(C)C1 [Example I-46]
6. CC1(C)C(=O)NCCN1C(=O)c1cc2nc(-c3ccc(F)cc3)cc(C3CCCCC3)c2o1 [Example I-211]
7. [2H]C([2H])([2H])N1CCN(C(=O)c2cc3nc(-c4cccc(Cl)c4)cc(C(C)(C)C)c3o2)C(C)(C)C1=O [Example I-238]

24 nM
4.9 nM
2.1 nM
8.4 nM
7.9 nM
7 nM
18 nM

Would you be so kind as to report IC50 for each listed record?
1. Cc1cc(C(=O)N2CCN(C(=O)c3cc4nc(C5CC6(CCC6)C5)cc(C(C)(C)C)c4o3)C(C)(C)C2)[nH]n1 [Example I-294]
2. CC(C)c1cc(-c2ccc(F)cc2)nc2cc(C(=O)N3CCN(C(=O)[C@H]4C[C@@H](O)C4)CC3(C)C)oc12 [Example I-135]
3. CC1(C)CCC(c2cc(-c3ccc(F)cc3)nc3cc(C(=O)N4CCNC(=O)C4(C)C)oc23)CC1 [Example I-251]

1.5 nM
24 nM
> 2000 nM
